- Assayed System: T1, 4H58-AA
- T1 chain: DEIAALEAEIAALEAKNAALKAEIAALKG
- Assay Details: two-hybrid library CCmax;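 note: natural log of median RNA to DNA barcode read ratio; higher means stronger binding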
- Condition Notes: mean of both orientations
Measure Name: interaction score

DEIAALKAEIAALEAENAALEAKNAALEG [4H535-AA] : -0.661

(a) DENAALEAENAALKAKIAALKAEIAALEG [4H1257-AA]
(b) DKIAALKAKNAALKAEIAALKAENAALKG [4H3020-AA]
(c) DKNAALKAEIAALKAKNAALKAEIAALEG [4H3705-AA]
(d) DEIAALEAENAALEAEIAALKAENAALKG [4H140-AA]
// query Sort the 4 binders by interaction score; largest first, smallest last. // list labels; follow requested order
// result d, c, b, a
